# experimental-system: T1, human Trophoblast cell surface antigen 2 (TROP2) (human, UniProt P09758 27-274, limits assumed)
# T1 construct: Analyte in the SPR experiments and immunogen; also called human TROP2
# T1 sequence: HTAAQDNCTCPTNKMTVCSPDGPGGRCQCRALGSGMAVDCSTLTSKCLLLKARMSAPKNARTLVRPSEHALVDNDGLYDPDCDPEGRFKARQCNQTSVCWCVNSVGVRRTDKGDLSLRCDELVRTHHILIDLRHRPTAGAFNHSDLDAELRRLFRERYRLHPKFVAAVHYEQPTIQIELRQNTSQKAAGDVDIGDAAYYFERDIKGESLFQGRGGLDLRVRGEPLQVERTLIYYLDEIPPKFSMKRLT
# test-details: SPR affinity ranking, human TROP2
readout: Kd (nM)
Field format: number, assumed nM, no unit text.

// solved cases for Kd follow
HC5/LC2 (antibody, human IgG1, kappa, V domains shown, Humanized anti-TROP2 antibody) VH: EVQLVQSGAEVKKPGESLKISCKGSGYTFTDYSINWVRQMPGKGLEWMGVISTYYGDASYNQKFKGQVTISADKSISTAYLQWSSLKASDTAMYYCARYGDGYNQFDYWGQGTLVTVSS VL: DVVMTQSPLSLPVTLGQPASISCRVSESVDSYGNNFMHWFQQRPGQSPRRLIYRASNLESGVPDRFSGSGSGTDFTLKISRVEAEDVGVYYCQQSYEDPYTFGGGTKVEIKR : 1.54
HC5/LC4 (antibody, human IgG1, kappa, V domains shown, Humanized anti-TROP2 antibody) VH: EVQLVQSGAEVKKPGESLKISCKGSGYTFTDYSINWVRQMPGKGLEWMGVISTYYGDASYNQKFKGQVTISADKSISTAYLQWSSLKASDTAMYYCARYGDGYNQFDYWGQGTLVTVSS VL: EIVLTQSPATLSLSPGERATLSCRVSESVDSYGNNFMHWYQQKPGQAPRLLIYRASNLESGIPARFSGSGSGTDFTLTISSLEPEDFAVYYCQQSYEDPYTFGGGTKVEIKR : 0.22

The binder identified as HC1/LC5 (antibody, human IgG1, kappa, V domains shown, Humanized anti-TROP2 antibody; also called DP002-HC1LC5) VH: QVQLVQSGAEVKKPGASVKVSCKASGYTFTDYSINWVRQAPGQGLEWMGVISTYYGDASYNQKFKGRVTMTTDTSTSTAYMELRSLRSDDTAVYYCARYGDGYNQFDYWGQGTMVTVSS VL: DIQMTQSPSSLSASVGDRVTITCRVSESVDSYGNNFMHWYQQKPGKAPKLLIYRASNLESGVPSRFSGSGSGTDFTFTISSLQPEDIATYYCQQSYEDPYTFGGGTKLEIKR registered its Kd at 0.107
